- System: 786-0
- ASSAY_NOTES: NCI tumour cell line growth inhibition, 48 h
The source made the active and inactive calls. Rule as the data show it: active = GI50 up to about 1.1 µM and inactive = higher.
Outcomes: active, inactive

# COMPOUND, GROUP_LABEL
rows = [
    ("CCC1(OC(=O)CN)C(=O)OCc2c1cc1n(c2=O)Cc2cc3ccccc3nc2-1 (stereo unspecified)", "active"),
    ("COc1cc2ccc(CC(N)=O)cc2cc1OC", "inactive"),
    ("COc1cc(OC)c(OC)cc1/C=C/c1nc2ccccc2s1", "inactive"),
    ("Cc1cc(-c2nc3cccc(F)c3s2)ccc1N", "inactive"),
    ("CN(C)Cc1cc(C(C)(C)C)ccc1-c1ccc(C(C)(C)C)cc1CN(C)C", "inactive"),
    ("O=C(Cn1c(C(=O)/C=C/c2ccco2)nc2ccccc21)c1ccc(Cl)cc1", "inactive"),
    ("COC(=O)c1c(C)cc(OC)c(C/C=C(\\C)CCCc2coc(C=C(C)C)c2)c1OC", "inactive"),
    ("O=c1[nH]c(=O)n(COCCO)c2ccc(Br)cc12", "inactive"),
    ("O=c1c2nc3ccccc3c(=O)n2ncn1-c1ccccc1Cl", "inactive"),
    ("Cc1ccc(/C(C#N)=C/c2cccc([N+](=O)[O-])c2)cc1", "inactive"),
    ("O=C1OC2C=CCC1C2 (stereo unspecified)", "inactive"),
]

---

- Tested on: PC-3
- ASSAY_NOTES: NCI tumour cell line growth inhibition, 48 h
Calls of active or inactive are those of the source. No stated cut-off is given here; in the data, active = GI50 up to about 1.1 µM and inactive = higher.
Labels: Y = active, N = inactive

# COMPOUND, GROUP_LABEL
measured = [
    ("Cc1cc(S(=O)(=O)/N=C2\\NCCN2Cc2ccccc2)c(S)cc1Cl", "N"),
    ("O=C1c2cccnc2-c2nccc3c2c1nc1cc(Br)ccc13", "Y"),
    ("N#Cc1c(-c2cccc(Br)c2)cc(-c2ccc(Cl)cc2)nc1N", "N"),
    ("O=C(/C=C\\c1ccccc1)N1CCc2ccccc2C1", "N"),
    ("COC(=O)c1c(C)cc(OC)c(C/C=C(\\C)CCCc2coc(C=C(C)C)c2)c1OC", "N"),
    ("CCCCCCCCCCCOCCC1C(C(C)OCCN2CCCC2)OC2OC(C)(C)OC21 (stereo unspecified)", "N"),
    ("C(=N\\OCCc1ccccc1)/c1cccnc1", "N"),
    ("COc1cc2c[n+](C)c3c4ccccc4ccc3c2cc1OC.COc1cc2cnc3c4ccccc4ccc3c2cc1OC", "N"),
    ("ClCCCSSCCCCl", "N"),
    ("CCOC(=O)C1=C(C)N(c2ccc(Cl)cc2)C2(O)C=CC(=O)C3C(=O)N(c4ccccc4)C(=O)C132 (stereo unspecified)", "N"),
    ("Cc1ccc2c(O)cc(-c3ccc(Cl)s3)nc2n1", "N"),
]

---

- System: HOP-92
- ASSAY_NOTES: NCI tumour cell line growth inhibition, 48 h
Active and inactive are the calls of the source. Cut-off read from the data, not from the text of the source: active = GI50 up to about 1.1 µM and inactive = higher.

# COMPOUND, TEST_SYSTEM, GI50
records = [
    ("CC1NOC(=O)C1/N=N/c1cccc(Cl)c1 (stereo not given)", "HOP-92", "26.4 µM (inactive)"),
    ("O=C1CCC(c2ccccc2)=NN1c1nsc2ccccc12", "HOP-92", "> 100 µM (inactive)"),
    ("Cc1nc(O)nc2nc3cc(Cl)cc(Cl)c3c(NC(C)(CO)CO)c12", "HOP-92", "16.4 µM (inactive)"),
    ("O=C1Oc2cc3c(c4cccc1c24)O[C@H](c1ccccc1)[C@@H](c1ccccc1)[C@@H]3c1ccc(Cl)cc1", "HOP-92", "28.8 µM (inactive)"),
    ("CCCCCCCN1C(=O)C(O)(c2ccc(C3(O)C(=O)N(CCCCCCC)c4ccccc43)s2)c2ccccc21 (stereo not given)", "HOP-92", "1.84 µM (inactive)"),
    ("COC(=O)C1=C(C(=O)OC)N(C(C)C)[C@H]2C(C(=O)OC)=C(C(=O)OC)N(C(C)C)[C@@H]12", "HOP-92", "> 100 µM (inactive)"),
    ("COc1ccc(-c2c(N)n(-c3nc4ccccc4s3)c(=O)c3cc([N+](=O)[O-])ccc23)cc1", "HOP-92", "16.4 µM (inactive)"),
    ("c1ccc2c(c1)Oc1cccc3cccc-2c13", "HOP-92", "> 100 µM (inactive)"),
    ("COC(=O)CSc1cc(Cl)c(C)cc1S(=O)(=O)Nc1n[nH]c(N)n1", "HOP-92", "> 10 µM (inactive)"),
    ("O=c1c2ccc(Cl)cc2oc2c(CSc3ccccc3)cccc12", "HOP-92", "> 39.4 µM (inactive)"),
]
